# Measurement target: UniProt O75762
# Sequence (O75762 whole entry): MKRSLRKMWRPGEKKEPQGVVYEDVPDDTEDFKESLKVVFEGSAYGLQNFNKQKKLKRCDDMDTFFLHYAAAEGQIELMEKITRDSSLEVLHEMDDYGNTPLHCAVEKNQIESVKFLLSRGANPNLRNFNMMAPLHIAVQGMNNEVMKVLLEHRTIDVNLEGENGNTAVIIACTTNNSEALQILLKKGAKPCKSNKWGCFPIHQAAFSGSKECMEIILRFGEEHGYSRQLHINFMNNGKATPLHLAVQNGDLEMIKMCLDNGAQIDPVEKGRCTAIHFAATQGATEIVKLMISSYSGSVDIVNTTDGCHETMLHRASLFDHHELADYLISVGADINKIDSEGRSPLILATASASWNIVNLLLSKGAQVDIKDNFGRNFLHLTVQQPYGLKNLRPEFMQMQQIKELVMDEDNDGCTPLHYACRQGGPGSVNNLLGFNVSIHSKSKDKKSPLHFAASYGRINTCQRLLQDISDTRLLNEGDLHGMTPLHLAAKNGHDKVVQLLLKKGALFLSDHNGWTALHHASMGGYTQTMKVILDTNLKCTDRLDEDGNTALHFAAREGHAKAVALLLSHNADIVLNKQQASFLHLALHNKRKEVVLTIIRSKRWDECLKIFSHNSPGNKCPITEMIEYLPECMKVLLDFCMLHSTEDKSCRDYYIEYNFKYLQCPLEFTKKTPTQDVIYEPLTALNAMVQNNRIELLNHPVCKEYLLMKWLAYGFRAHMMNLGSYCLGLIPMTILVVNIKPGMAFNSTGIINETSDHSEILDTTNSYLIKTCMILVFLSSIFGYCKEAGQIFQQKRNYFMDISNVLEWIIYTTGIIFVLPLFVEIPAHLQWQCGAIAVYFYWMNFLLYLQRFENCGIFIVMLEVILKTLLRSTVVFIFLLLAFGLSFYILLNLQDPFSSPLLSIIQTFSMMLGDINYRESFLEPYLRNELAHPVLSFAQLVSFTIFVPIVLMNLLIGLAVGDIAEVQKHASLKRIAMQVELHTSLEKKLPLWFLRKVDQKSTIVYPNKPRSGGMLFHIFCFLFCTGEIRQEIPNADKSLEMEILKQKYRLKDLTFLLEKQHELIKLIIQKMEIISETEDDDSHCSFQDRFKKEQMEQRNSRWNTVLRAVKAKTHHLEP
# Protocol notes: Antagonist activity at human TRPA1 expressed in HEK293 cells assessed as inhibition of Ca2+-induced intracellular calcium flux by FLIPR assay
# Type: functional, cell-based
Experimental endpoint: log10 IC50 (log10 of the value in µM)
Units before log transform: µM; reported quantity: IC50; transform: log10.

Solved entries:
{"columns": ["Compound", "Measurement target", "log10 IC50"],
 "data": [
  ["COc1ccc(C(=O)NC(C(=O)c2ccc(C#N)cc2)C(C)C)cc1 (stereo unspecified)", "UniProt O75762", 1.10],
  ["CC(C)C(NC(=O)N1CCc2ccccc2C1)C(=O)c1ccc(C#N)cc1 (stereo unspecified)", "UniProt O75762", 0.70],
  ["CC(C)C(NC(=O)OC(C)(C)C)C(=O)c1ccc(C#N)cc1 (stereo unspecified)", "UniProt O75762", 0.80],
  ["CC(C)C(NC(=O)c1ccccc1C(F)(F)F)C(=O)c1ccc(C#N)cc1 (stereo unspecified)", "UniProt O75762", 0.50],
  ["O=C(NC(C(=O)c1ccc(Cl)cc1)C1CC1)c1ccccc1 (stereo unspecified)", "UniProt O75762", 0.30]
]}

Recorded log10 IC50 (compound CC(C)C(NC(=O)OC(C)(C)C)C(=O)c1ccc(Cl)cc1 (stereo unspecified) ): 0.00
